Each item that follows carries a reported % Inh @ 10 μM (rabbit).
target_entity: PDEV (Oryctolagus cuniculus, UniProt G1SX67)
procedure_details: Cyclic nucleotide phosphodiesterase (PDE) assay, inhibition of PDEV isolated from rabbit tissue
Format: biochemical
measurement_parameters: 10 μM test compound; rabbit PDEV
Answer format reminder: number followed by unit.

Consider the reported % Inh @ 10 μM (rabbit) for these molecules:
{"columns": ["molecule", "% Inh @ 10 μM (rabbit)"],
 "data": [
  ["COC(=O)C1Cc2c([nH]c3ccccc23)C(c2ccc3c(c2)OCO3)N1C(=O)c1ccc(-c2cccc([N+](=O)[O-])c2)o1 (stereo not shown)", "20%"],
  ["Cc1cc(C(=O)N2CCc3c([nH]c4ccccc34)C2c2ccc(OCCCN(C)C)cc2)nn1-c1ccccc1 (racemic)", "15%"],
  ["O=C(c1ccc(-c2cccc(C(F)(F)F)c2)o1)N1CCc2c([nH]c3ccccc23)C1c1ccc2c(c1)OC(F)(F)O2 (stereo not shown)", "16%"],
  ["CN(C)CCn1c2c(c3ccccc31)CCN(C(=O)c1ccc(-c3ccc(Cl)cc3)o1)C2c1ccc2c(c1)OCO2 (stereo not shown)", "93%"],
  ["CN(C)CCn1c2c(c3ccccc31)CCN(C(=O)c1cc3ccccc3s1)C2c1ccc2c(c1)OCO2 (stereo not shown)", "88%"],
  ["COC(=O)Cn1c2c(c3ccccc31)CCN(C(=O)c1ccc(-c3cccc(C(F)(F)F)c3)o1)C2c1ccc2c(c1)OCO2 (stereo not shown)", "20%"],
  ["CC(C)(C)c1cc(C(=O)N2CCc3c([nH]c4ccccc34)C2c2ccc([N+](=O)[O-])cc2)n(Cc2ccccc2)n1 (stereo not shown)", "−5%"],
  ["O=C(c1ccc(-c2cccc(C(F)(F)F)c2)o1)N1CCc2c([nH]c3ccccc23)C1c1ccc([N+](=O)[O-])cc1 (stereo not shown)", "20%"]
]}

Given Cc1cc(C)cc(C2c3[nH]c4ccccc4c3CCN2C(=O)c2cnn(-c3ccccc3)c2C(F)(F)F)c1 (stereo not shown) , state its recorded % Inh @ 10 μM (rabbit). 12%

Given O=C(c1ccc(-c2cccc(C(F)(F)F)c2)o1)N1CCc2c([nH]c3ccccc23)C1c1ccccc1 (stereo not shown) , state its recorded % Inh @ 10 μM (rabbit). 49%

Given O=C(c1cnn(-c2ccccc2)c1C(F)(F)F)N1CCc2c([nH]c3ccccc23)C1c1ccc(Cl)c(Cl)c1 (racemic) , state its recorded % Inh @ 10 μM (rabbit). 18%

Given COc1ccc(C2c3[nH]c4ccccc4c3CCN2C(=O)c2c(-c3ccccc3)noc2C)cc1 (racemic) , state its recorded % Inh @ 10 μM (rabbit). 32%

Given CS(=O)(=O)c1ccc(-c2cnc(N3CCc4c([nH]c5ccccc45)C3c3ccc4c(c3)OCO4)nc2)c([N+](=O)[O-])c1 (stereo not shown) , state its recorded % Inh @ 10 μM (rabbit). 89%

Given CN(C)c1ccc(C2c3[nH]c4ccccc4c3CCN2C(=O)c2ccc(-c3cccc([N+](=O)[O-])c3)o2)cc1 (stereo not shown) , state its recorded % Inh @ 10 μM (rabbit). 27%

Given CN(C)CCCCn1c2c(c3ccccc31)CCN(C(=O)c1ccc(-c3cccc(C(F)(F)F)c3)o1)C2c1ccc2c(c1)OCO2 (stereo not shown) , state its recorded % Inh @ 10 μM (rabbit). 67%

Given COc1ccc(C2c3[nH]c4ccccc4c3CCN2C(=O)c2cnn(-c3ccccc3)c2C(F)(F)F)cc1 (stereo not shown) , state its recorded % Inh @ 10 μM (rabbit). 45%
